# procedure_summary: activates NOTCH signaling in reporter cells (AID 434982)
# recorded_conditions: NOTCH signaling luciferase reporter cells, luminescence; at 2.5 µM; hits give high values
Out of some 15,000 compounds screened, about 60 (0.4%) were called active. This excerpt belongs to a sample that is enriched for actives.
Overview of reported activation across a group of compounds:
Dear colleague, please return just the value in %, with no unit written.

>  <compound>
CNC(=O)O/N=C(\N)Cc1csc2ccc(Cl)cc12

>  <activation (%)>
0.88

$$$$

Data request, read-out activation, for CN(C)CC1CCCCC1=O (stereo not given) 0.24

Please do the same for O=C1/C(=C\c2ccc3c(c2)OCO3)N2CCC1CC2 as well. 3.83

Please give the result for N#CCN1CCN(c2cccc(Cl)c2)CC1 too. 0.33

Entry Cc1ccc(Oc2c(C)nc(-c3ccccc3)nc2OC(=O)N(C)C)cc1 please 0.1
